# Test Method Notes: Volume of distribution at steady state in rat at 5 umol/kg, iv
# Assay type: ADME, organism-based
# Test Context: in vivo, read-out: Vdss
Outcome Measure: Vd (L/kg)

Worked set:
| Smiles Code | Vd [L/kg] |
| --- | --- |
| N#Cc1cc(CN2CCC2)cnc1-c1ccc(C(=O)Nc2ccccc2N)cc1 | 5.4 |
| Cc1cc(CN2CCC2)cnc1-c1ccc(C(=O)Nc2ccccc2N)cc1 | 6.9 |

P: Nc1ccccc1NC(=O)c1ccc(-c2ncc(CN3CCC3)cc2F)cc1
Q: N#Cc1cccnc1-c1ccc(C(=O)Nc2ccccc2N)cc1
[in] Min Vd? P | Q Indicate which entry you chose by stating its label.
[out] Q
